target: ERBB2-A775_G776insYVMA (ERBB2YVMA) (Homo sapiens, UniProt P04626, INS775YVMA); test: HotSpot radiometric kinase activity assay, ERBB2YVMA; conditions: biochemical activity, read-out: HER2-YVMA IC50
Sequence (P04626 with tags, fused parts or gaps INS775YVMA limits assumed): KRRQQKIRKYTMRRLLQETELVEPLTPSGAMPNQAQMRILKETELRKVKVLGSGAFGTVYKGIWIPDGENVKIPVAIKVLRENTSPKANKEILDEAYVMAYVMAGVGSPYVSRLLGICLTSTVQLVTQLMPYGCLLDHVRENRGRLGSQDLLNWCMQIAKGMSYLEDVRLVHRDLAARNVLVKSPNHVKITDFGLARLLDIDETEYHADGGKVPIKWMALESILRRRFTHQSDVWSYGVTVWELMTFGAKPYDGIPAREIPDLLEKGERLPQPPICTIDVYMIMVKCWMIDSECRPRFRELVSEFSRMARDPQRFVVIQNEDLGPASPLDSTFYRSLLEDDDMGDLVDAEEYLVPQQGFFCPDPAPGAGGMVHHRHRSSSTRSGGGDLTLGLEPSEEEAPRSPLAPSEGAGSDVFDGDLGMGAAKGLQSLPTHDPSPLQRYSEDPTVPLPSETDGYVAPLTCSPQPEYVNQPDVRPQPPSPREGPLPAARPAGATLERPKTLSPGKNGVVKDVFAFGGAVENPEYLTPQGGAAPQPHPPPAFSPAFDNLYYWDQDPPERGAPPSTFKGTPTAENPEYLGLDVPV
pIC50: −log10 of the molar value.
measure: pIC50

compound="Cc1cc(Nc2ncnn3ccc([C@H]4CCCN(C(=O)/C=C/CN(C)C)C4)c23)ccc1Oc1ccn2ncnc2c1 (single isomer, unassigned)" system_under_test="ERBB2-A775_G776insYVMA (ERBB2YVMA) (Homo sapiens, UniProt P04626, INS775YVMA)" result="> 6.70"

The compound Cc1cc(Nc2ncnn3ccc([C@H]4CCN(C(=O)/C=C/CN(C)C)C4)c23)ccc1Oc1ccn2ncnc2c1 (single isomer, unassigned) showed pIC50 equal to > 6.70

The compound Cc1cc(Nc2ncnn3ccc([C@H]4CCCN(C(=O)/C=C/CN(C)C)CC4)c23)ccc1Oc1ccn2ncnc2c1 (single isomer, unassigned) showed pIC50 equal to > 6.70
